# systemTested: Ehrlichia translocated factor-1 (Etf-1), recombinant 6×His-Etf-1 fusion protein (E. chaffeensis, UniProt Q2GG12 1-380)
# assayOverview: fluorescence polarisation
# experimentalSetup: both partners purified
Positions of bridges follow the written chain, without caps; N, C: chain ends. Non-standard residues stand in square brackets, D forms with d. No end group written: not given here. Phe(4-Cl) = N[C@@H](Cc1ccc(Cl)cc1)C(=O)O; d2Nal = N[C@H](Cc1ccc2ccccc2c1)C(=O)O; Dap = NC[C@H](N)C(=O)O; TMA = not defined here; βAla = NCCC(=O)O
Reported Kd by item:
Put down the number, then write its unit next to it.

binder	Kd
YH[dP][d2Nal]DA[dL][Dap][Phe(4-Cl)][d2Nal][dR]R[dR]R[Dap]-{βAla-βAla-Lys(FAM)} (linker 8-15 via TMA; reading uncertain; also: TMA third attachment point not given here) [FAM-labeled macrocyclic peptide B7-131-5]	2900 nM

What value of Kd has been reported for the following binder? Y[d2Nal]Q[D‑beta‑homoalanine][dP][dL][Dap][Phe(4-Cl)][d2Nal][dR]R[dR]R[Dap]-{βAla-βAla-Lys(FAM)} (linker 7-14 via TMA; reading uncertain; also: TMA third attachment point not given here) [FAM-labeled macrocyclic peptide B7-133-8]
1300 nM
